Known phytotoxicity rating AMARE of a selection of compounds
System: redroot pigweed (Amaranthus retroflexus, AMARE)
Assay: Pre-emerge test, greenhouse herbicide activity screening
Format: in vivo
Conditions: pre-emerge, 250 g ai/ha, 14 days after application, rating scale 0-100

Below are worked cases with known answers.
| Compound | phytotoxicity rating AMARE |
| --- | --- |
| COc1c(Cl)cc(F)c(-n2c(=O)cc(C(F)(F)F)n(C)c2=O)c1NNC(=O)c1ccc2ccccc2c1 [15-5] | 100 |
| CCOc1c(Cl)cc(F)c(-n2c(=O)cc(C(F)(F)F)n(C)c2=O)c1Cl [14-62] | 100 |
| COc1c(Cl)cc(F)c(-n2c(=O)cc(C(F)(F)F)n(C)c2=O)c1NN [Compound 15-1] | 100 |

# input Check the records and state phytotoxicity rating AMARE for COc1c(Cl)cc(F)c(-n2c(=O)cc(C(F)(F)F)n(C)c2=O)c1NN=C(C)C [15-12]
# output 100

# input Check the records and state phytotoxicity rating AMARE for CCOC(=O)C(Cl)Cc1c(OC)c(Cl)cc(F)c1-c1nn(C)c(C(F)(F)F)c1Cl (centres unmarked) [14-56]
# output 100

# input Check the records and state phytotoxicity rating AMARE for COc1c(Cl)cc(F)c(-n2c(=O)cc(C(F)(F)F)n(C)c2=O)c1CC(C)(Cl)C(=O)OCCSC (centres unmarked) [14-48]
# output 100

# input Check the records and state phytotoxicity rating AMARE for COc1c(Cl)cc(F)c(-n2c(=O)cc(C(F)(F)F)n(C)c2=O)c1NN=C(C(F)(F)F)C(F)(F)F [15-21]
# output 100

# input Check the records and state phytotoxicity rating AMARE for CCOC(=O)C(Cl)Cc1c(OC)c(Cl)cc(F)c1-n1nc(C(F)(F)F)n(C)c1=O (centres unmarked) [14-61]
# output 95

* * *

System: sicklepod (Cassia obtusifolia, CASOB)
Assay: Pre-emerge test, greenhouse herbicide activity screening
Type: in vivo
Details: pre-emerge, 250 g ai/ha, 14 days after application, scale 0-100
Known phytotoxicity rating CASOB of a selection of compounds
// no unit string in output, number only

Below are worked cases with known answers.
| Compound | Parameter measured | Reported measurement |
| --- | --- | --- |
| Cn1c(C(F)(F)F)cc(=O)n(-c2ccc(C(F)(F)F)cc2NC(=O)c2ccc3ccccc3c2)c1=O [2-149] | phytotoxicity rating CASOB | 50 |
| Cn1c(C(F)(F)F)cc(=O)n(-c2ccc(C#N)cc2NC(=O)c2ccc3ccccc3c2)c1=O [2-140] | phytotoxicity rating CASOB | 100 |
| COc1c(C#N)cc(F)c(-n2c(=O)cc(C(F)(F)F)n(C)c2=O)c1NC(=O)C=Cc1ccccc1 [2-179] | phytotoxicity rating CASOB | 100 |
| COc1c(Cl)cc(F)c(-n2c(=O)cc(C(F)(F)F)n(C)c2=O)c1NC(=O)c1ccc2ccccc2c1OC [2-153] | phytotoxicity rating CASOB | 0 |
| CCSCC(=O)Nc1c(OC)c(Cl)cc(F)c1-n1c(=O)cc(C(F)(F)F)n(C)c1=O [2-172] | phytotoxicity rating CASOB | 80 |

# input Report the value of phytotoxicity rating CASOB obtained on sicklepod (Cassia obtusifolia, CASOB) for Cc1c(Cl)cc(F)c(-n2c(=O)cc(C(F)(F)F)n(C)c2=O)c1NC(=O)C=Cc1ccccc1 [2-123] .
# output 90

# input Report the value of phytotoxicity rating CASOB obtained on sicklepod (Cassia obtusifolia, CASOB) for C=Cc1ccc(C(=O)Nc2c(OC)c(Br)cc(F)c2-n2c(=O)cc(C(F)(F)F)n(C)c2=O)cc1 [2-182] .
# output 60

# input Report the value of phytotoxicity rating CASOB obtained on sicklepod (Cassia obtusifolia, CASOB) for COc1c(Cl)cc(F)c(-n2c(=O)cc(C(F)(F)F)n(C)c2=O)c1NC(=O)c1ccc2c(C#N)cccc2c1 [2-163] .
# output 60
